- SYSTEM UNDER TEST: PIK3CG (human)
- MEASUREMENT DESCRIPTION: Inhibition of PIK3CG Kinase Activity
pIC50: −log10 of the molar value.
Catalogue of compounds with associated pIC50

# example entries with known answers
CC(=O)Nc1nc2c(s1)-c1c(c(C3CC3)nn1-c1ccc(C(=O)NC[C@@H]3CCCN3CC3CCCC3)c(Cl)c1)CC2    > 6.22
CC(=O)Nc1nc2c(s1)-c1c(c(C3CC3)nn1-c1ccc(C(=O)N(C)[C@H]3CC[C@@H](N4CCCC4)CC3)c(C)c1)CC2    > 6.22
CC(=O)Nc1nc2c(s1)-c1c(c(C3CC3)nn1-c1ccc(C(=O)N3CC[C@H](CN4CCCC4)C3)c(Cl)c1)CC2    > 6.22
CC(=O)Nc1nc2c(s1)-c1c(c(C3CC3)nn1-c1ccc(C(=O)N(C)[C@H]3CC[C@@H](N(C)CC4CC4)CC3)c(F)c1)CC2    > 6.22

Memo: CC(=O)Nc1nc2c(s1)-c1c(c(C3CC3)nn1-c1ccc(C(=O)N3CC[C@H](CN4CCCC4)C3)cc1Cl)CC2 , reported pIC50: > 6.22

Memo: CC(=O)Nc1nc2c(s1)-c1c(c(C3CC3)nn1-c1ccc(C(=O)NCC3CCN(CC4CCCC4)CC3)c(Cl)c1)CC2 , reported pIC50: > 6.22

###

The following compounds each carry a recorded pIC50 for PIK3CG (human).
pIC50: −log10 of the molar value.

# example entries with known answers
CCN(C(=O)c1ccc(-n2nc(C3CC3)c3c2-c2sc(NC(C)=O)nc2CC3)c(F)c1)[C@H]1CC[C@@H](N2CCCC2)CC1    > 6.22
CC(=O)Nc1nc2c(s1)-c1c(c(C3CC3)nn1-c1ccc(C(=O)NC3CCN(CC4CCCC4)CC3)cc1Cl)CC2    > 6.22
CC(=O)Nc1nc2c(s1)-c1c(c(C3CC3)nn1-c1ccc(C(=O)NC3CCN(CC4CCCCC4)CC3)cc1Cl)CC2    > 6.22
CC(=O)Nc1nc2c(s1)-c1c(c(C3CC3)nn1-c1ccc(C(=O)NC[C@H]3CCCN3C3CCCC3)c(Cl)c1)CC2    > 6.22
CC(=O)Nc1nc2c(s1)-c1c(c(C3CC3)nn1-c1ccc(C(=O)NCc3ccncc3)cc1Cl)CC2    > 6.22
CC(=O)Nc1nc2c(s1)-c1c(c(C3CC3)nn1-c1ccc(C(=O)N[C@@H]3CCN(C4CCCCC4)C3)c(F)c1)CC2    > 6.22
CC(=O)Nc1nc2c(s1)-c1c(c(C3CCCC3)nn1-c1ccccc1Cl)CC2    > 6.22

Attention now shifts to the item below.
Memo: CC(=O)Nc1nc2c(s1)-c1c(c(C3CCC3)nn1-c1ccc(C(=O)NC3CCN(C4CCOCC4)CC3)cc1Cl)CC2 , reported pIC50: > 6.22

###

pIC50: −log10 of the molar value.
The following compounds each carry a recorded pIC50 for PIK3CG (human) (UniProt P48736).

# example entries with known answers
CC(=O)Nc1nc2c(s1)-c1c(c(C3CC3)nn1-c1ccc(C(=O)N(C)[C@H]3CC[C@@H](N4CCCCC4)CC3)c(C)c1)CC2    > 6.22
CC(=O)Nc1nc2c(s1)-c1c(c(C3CC3)nn1-c1ccc(C(=O)N[C@@H]3CCN(C4CCCC4)C3)c(Cl)c1)CC2    > 6.22
CCCN1CCC(NC(=O)c2ccc(-n3nc(C4(C)CC4)c4c3-c3sc(NC(C)=O)nc3CC4)c(Cl)c2)CC1    > 6.22

Attention now shifts to the item below.
Reported pIC50 (PIK3CG (human) (UniProt P48736)) for entry CC(=O)Nc1nc2c(s1)-c1c(c(C3CC3)nn1-c1ccc(C(=O)NC[C@@H]3CCCN3C3CCCC3)c(Cl)c1)CC2 is > 6.22
